- Tested on: Human immunodeficiency virus 1
- measurement.description: Antiviral activity against HIV1 3B in human MT4 cells in presence of 50% normal human serum
- Format: functional
- protocol.conditions: Human immunodeficiency virus 1, 3B, MT4; read-out: CIC95
In this scheme, each record receives a class according to its IC95; the ranges are range 1 = under 100 nM, range 2 = from 100 nM up to 500 nM, range 3 = 500 nM and over

Take a look at these entries with their results.
CNC(=O)c1nc(C(C)(C)NC(=O)C(=O)N(C)C)n(C)c(=O)c1O	range 3
COC(=O)C(=O)NC(C)(C)c1nc(C(=O)NCc2ccc(F)cc2)c(O)c(=O)n1C	range 3
Cn1c(C(C)(C)NC(=O)C(=O)N2CCOCC2)nc(C(=O)NCc2ccc(F)cc2)c(O)c1=O	range 2
CN(C)C(=O)C(=O)N(C)C(C)(C)c1nc(C(=O)NCc2ccc(F)cc2)c(O)c(=O)n1C	range 2
Cn1c(C(C)(C)NC(=O)c2ccccn2)nc(C(=O)NCc2ccc(F)cc2)c(O)c1=O	range 3
Cn1c(C(C)(C)NC(=O)c2cscn2)nc(C(=O)NCc2ccc(F)cc2)c(O)c1=O	range 2
CC(=O)NC(C)(C)c1nc(C(=O)NCc2ccc(F)cc2)c(O)c(=O)n1C	range 2
Cn1c(C(C)(C)NC(=O)c2c[nH]cn2)nc(C(=O)NCc2ccc(F)cc2)c(O)c1=O	range 2
CN(C)C(C)(C)c1nc(C(=O)NCc2ccc(F)cc2)c(O)c(=O)n1C	range 3
Cn1c(C(C)(C)NC(=O)c2ncccn2)nc(C(=O)NCc2ccc(F)cc2)c(O)c1=O	range 1

Prompt: Field: class (IC95) — entry: "CN(C)C(=O)C(=O)NC(C)(C)c1nc(C(=O)NCc2ccc(F)cc2S(C)(=O)=O)c(O)c(=O)n1C"
Completion: range 2

Prompt: Each molecule maps to one class by IC95. Which class for "COc1cccc(CNC(=O)c2nc(C(C)(C)NC(=O)C(=O)N(C)C)n(C)c(=O)c2O)c1OC" ?
Completion: range 3

Prompt: Bin this entry: "CN(C)C1(c2nc(C(=O)NCc3ccc(F)cc3)c(O)c(=O)n2C)CCOCC1"
Completion: range 3

Prompt: Into which category would you place "Cc1nnc(C(=O)NC(C)(C)c2nc(C(=O)NCc3ccc(F)cc3)c(O)c(=O)n2C)o1" ?
Completion: range 1

Prompt: Kindly state the category for this molecule: "Cn1c(C(C)(C)NC(=O)C(=O)O)nc(C(=O)NCc2ccc(F)cc2)c(O)c1=O"
Completion: range 3

Prompt: Exercise: read the entry "CN(C)C(=O)C(=O)NC(C)(C)c1nc(C(=O)NCc2ccc(F)cc2)c(O)c(=O)n1C" and state which class it falls under.
Completion: range 1

Prompt: Please indicate the class for "Cn1c(C(C)(C)NS(C)(=O)=O)nc(C(=O)NCc2ccc(F)cc2)c(O)c1=O" based on its IC95.
Completion: range 3

----------
- measurement.description: Protein binding in Sprague-Dawley rat plasma
- Assay type: ADME, cell-free
- protocol.conditions: read-out: PPB (converted)
Would you mind telling me the reported fraction unbound of each entry?
Numbers only.

Cc1nnc(C(=O)NC(C)(C)c2nc(C(=O)NCc3ccc(F)cc3)c([O-])c(=O)n2C)o1.[Na+]	0.74

Now for another entry.
Prompt: Need fraction unbound of "CN(C)C(=O)C(=O)NC(C)(C)c1nc(C(=O)NCc2ccc(F)cc2)c([O-])c(=O)n1C.[Na+]" , thanks.
Completion: 0.65

----------
- measurement.description: Plasma concentration in dog at 2 mg/kg, po after 12 hrs
- Assay type: ADME, organism-based, Canis lupus familiaris
- Set-up: dose 2 mg/kg, route oral
measured.endpoint: concentration at 12 h (nM)
Give bare numbers, in nM.

Prompt: Using the record for "Cc1nnc(C(=O)NC(C)(C)c2nc(C(=O)NCc3ccc(F)cc3)c([O-])c(=O)n2C)o1.[K+]" , report its concentration at 12 h.
Completion: 160

----------
Task for the reader: assign each of the following compounds its reported clearance.
- measurement.description: Plasma clearance in rhesus monkey at 1 mg/kg, iv
- Type: ADME, organism-based, Macaca mulatta
- Parameters: dose 1 mg/kg, route intravenous
Please don't drop the unit; write it after the number.

Cc1nnc(C(=O)NC(C)(C)c2nc(C(=O)NCc3ccc(F)cc3)c(O)c(=O)n2C)o1	18 mL/min/kg

Shifting focus to the compound that follows.
Prompt: Consider the compound "CN(C)C(=O)C(=O)NC(C)(C)c1nc(C(=O)NCc2ccc(F)cc2)c(O)c(=O)n1C" and give its measured clearance.
Completion: 14 mL/min/kg

----------
- system: Human immunodeficiency virus type 1 integrase (Human immunodeficiency virus 1, UniProt Q7ZJM1)
- Sequence (Q7ZJM1 whole entry): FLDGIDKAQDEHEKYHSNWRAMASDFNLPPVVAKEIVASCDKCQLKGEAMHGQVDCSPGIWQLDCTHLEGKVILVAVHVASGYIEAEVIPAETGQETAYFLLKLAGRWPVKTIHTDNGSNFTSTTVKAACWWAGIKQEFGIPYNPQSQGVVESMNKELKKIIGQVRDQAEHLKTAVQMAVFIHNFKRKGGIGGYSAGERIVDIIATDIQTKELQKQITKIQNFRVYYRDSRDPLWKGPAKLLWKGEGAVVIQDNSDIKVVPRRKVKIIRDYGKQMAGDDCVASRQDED
- measurement.description: Inhibition of HIV1 recombinant integrase strand transfer activity
measured.endpoint: pIC50
Answers are plain numbers, as −log10 of the molar value.

Cn1c(C(C)(C)NS(C)(=O)=O)nc(C(=O)NCc2ccc(F)cc2)c(O)c1=O	8.10
COc1cccc(CNC(=O)c2nc(C(C)(C)NC(=O)C(=O)N(C)C)n(C)c(=O)c2O)c1OC	7.68
Cn1c(C(C)(C)NC(=O)c2c[nH]cn2)nc(C(=O)NCc2ccc(F)cc2)c(O)c1=O	8.22
CN(C)C(=O)C(=O)N(C)C(C)(C)c1nc(C(=O)NCc2ccc(F)cc2)c(O)c(=O)n1C	7.82
Cn1c(C(C)(C)NC(=O)c2cnco2)nc(C(=O)NCc2ccc(F)cc2)c(O)c1=O	8.15

Field: pIC50. Fill in for each record below.
1. CN(C)C(=O)NC(C)(C)c1nc(C(=O)NCc2ccc(F)cc2)c(O)c(=O)n1C
2. CN(C)C(=O)C(=O)NC(C)(C)c1nc(C(=O)NCc2ccc(F)cc2S(C)(=O)=O)c(O)c(=O)n1C

Completion:
1. 7.74
2. 8.40

// input: 4 molecules below; output: pIC50 for each
1. CN(C)C(=O)C(=O)NC(C)(C)c1nc(C(=O)NCc2ccc(F)cc2)c(O)c(=O)n1C
2. Cn1c(C(C)(C)NC(=O)c2ncccn2)nc(C(=O)NCc2ccc(F)cc2)c(O)c1=O
3. CN1CCN(C(=O)C(=O)NC(C)(C)c2nc(C(=O)NCc3ccc(F)cc3)c(O)c(=O)n2C)CC1
4. CN(C)C(=O)C(=O)NC(C)(C)c1nc(C(=O)NCc2ccc(F)c(Cl)c2)c(O)c(=O)n1C

Completion:
1: 8.00; 2: 8.15; 3: 7.59; 4: 8.05

----------
- measurement.description: AUC in dog at 2 mg/kg, po
- Format: ADME, organism-based, Canis lupus familiaris
- Parameters: dose 2 mg/kg, route oral
- protocol.conditions: plasma
For each entry below, report its AUC value.
Numbers only, in µM·h.

Cc1nnc(C(=O)NC(C)(C)c2nc(C(=O)NCc3ccc(F)cc3)c(O)c(=O)n2C)o1	7

Switching to the query record.
Prompt: I am curious: what AUC value has been reported for "Cc1nnc(C(=O)NC(C)(C)c2nc(C(=O)NCc3ccc(F)cc3)c([O-])c(=O)n2C)o1.[K+]" ?
Completion: 11

----------
- measurement.description: Cmax in rhesus monkey at 10 mg/kg, po
- Format: ADME, organism-based, Macaca mulatta
- Parameters: dose 10 mg/kg, route oral
- protocol.conditions: in vivo
measured.endpoint: Cmax (µM)
Numbers only, in µM.

Prompt: I would be grateful if you could share the reported Cmax for "CN(C)C(=O)C(=O)NC(C)(C)c1nc(C(=O)NCc2ccc(F)cc2)c(O)c(=O)n1C" .
Completion: 4.5

----------
- System: Human immunodeficiency virus 1
- measurement.description: Antiviral activity against HIV1 3B in human MT4 cells in presence of 50% normal human serum
- Assay type: functional
- protocol.conditions: Human immunodeficiency virus 1, 3B, MT4; read-out: CIC95
Give IC95 for every item shown.
One number for each entry, in nM.

In the examples that follow, each entry is paired with its recorded IC95.
Cn1c(C(C)(C)NC(=O)c2cccnn2)nc(C(=O)NCc2ccc(F)cc2)c(O)c1=O	500
CN(C)C(C)(C)c1nc(O)c(O)c(C(=O)NCc2ccc(F)cc2)n1	78
CN(C)C(=O)C(=O)NC(C)(C)c1nc(C(=O)NCc2ccc(F)c(Cl)c2)c(O)c(=O)n1C	130

Prompt: Given "Cn1c(C(C)(C)N2CCOCC2)nc(C(=O)NCc2ccc(F)cc2)c(O)c1=O" , state its recorded IC95.
Completion: 500

----------
- system: Human immunodeficiency virus type 1 integrase (Human immunodeficiency virus 1, UniProt Q7ZJM1)
- measurement.description: Inhibition of HIV1 recombinant integrase strand transfer activity
measured.endpoint: IC50 (nM)
Answers are plain numbers, in nM.

// solved cases for IC50 follow
CN(C)C1(c2nc(C(=O)NCc3ccc(F)cc3)c(O)c(=O)n2C)CCOCC1	2
Cn1c(C(C)(C)N2CCOCC2)nc(C(=O)NCc2ccc(F)cc2)c(O)c1=O	3
COC(=O)C(=O)NC(C)(C)c1nc(C(=O)NCc2ccc(F)cc2)c(O)c(=O)n1C	15
Cn1c(C(C)(C)NC(=O)C(=O)O)nc(C(=O)NCc2ccc(F)cc2)c(O)c1=O	4
Cc1nnc(C(=O)NC(C)(C)c2nc(C(=O)NCc3ccc(F)cc3)c(O)c(=O)n2C)[nH]1	4
Cn1c(C(C)(C)NC(=O)c2cscn2)nc(C(=O)NCc2ccc(F)cc2)c(O)c1=O	8

Working through the 4 compounds below one at a time, give IC50 for each.
1. Cn1c(C(C)(C)NC(=O)c2cccnn2)nc(C(=O)NCc2ccc(F)cc2)c(O)c1=O
2. CC(=O)NC(C)(C)c1nc(C(=O)NCc2ccc(F)cc2)c(O)c(=O)n1C
3. Cn1c(C(C)(C)NC(=O)C(=O)N2CCOCC2)nc(C(=O)NCc2ccc(F)cc2)c(O)c1=O
4. Cn1c(C(C)(C)NC(=O)c2ccccn2)nc(C(=O)NCc2ccc(F)cc2)c(O)c1=O

Completion:
[15, 7, 20, 20]

Below are 2 compounds. Give each one its IC50.
1. CN(C)S(=O)(=O)NC(C)(C)c1nc(C(=O)NCc2ccc(F)cc2)c(O)c(=O)n1C
2. CN(C)C(C)(C)c1nc(C(=O)NCc2ccc(F)cc2)c(O)c(=O)n1C

Completion:
12
230
